I'd be grateful if you could share measured LC50 for these entries.
# System: BT-549
# PROCEDURE_SUMMARY: Growth inhibition of human BT549 cells after 48 hrs by sulforhodamine B assay
# Format: functional
# EXPERIMENTAL_PARAMETERS: BT-549, 48 h
Give the number; µM is assumed, so skip it.

Query "COc1cc(/C=C/c2cc(O)c3c(c2)C[C@@H]2C(C)(C)[C@H](O)CC[C@@]2(C)O3)cc(O)c1C/C=C(\C)CCC=C(C)C" yields LC50 of 69.2

Query "COc1cc(/C=C/c2ccc3c(c2)C[C@@H]2C(C)(C)[C@H](O)CC[C@@]2(C)O3)cc(O)c1C/C=C(\C)CCC=C(C)C" yields LC50 of 49

Query "COCOc1cc(/C=C/c2cc(CO)c3c(c2)C[C@@H]2C(C)(C)[C@H](O)CC[C@@]2(C)O3)cc(OC)c1C/C=C(\C)CCC=C(C)C" yields LC50 of 50.1

Query "COc1cc(/C=C/c2cc3c(c(OC)c2)O[C@]2(C)CC[C@@H](O)C(C)(C)[C@H]2C3)cc(O)c1C/C=C(\C)CCC=C(C)C" yields LC50 of 25.1
